Values from patent US20170137511A1

measured target: T1, recombinant Macaque Monkey IL-15 (MyBiosource cat. no. MBS948894) (Rhesus macaque / Cynomolgus monkey, UniProt P40221 49-162 (Chlorocebus aethiops entry))
T1 construct: Produced in yeast; also called Rhesus macaque IL-15; recombinant monkey IL-15; not shown: additional N-terminal His tag
T1 sequence (P40221 49-162): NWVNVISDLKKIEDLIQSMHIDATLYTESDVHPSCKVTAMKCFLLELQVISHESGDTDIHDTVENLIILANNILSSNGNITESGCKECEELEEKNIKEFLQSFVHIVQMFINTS
test details: ELISA, plate-bound Macaque Monkey IL-15; printed as BC50 (half-maximal binding concentration)
Method: Maxisorp plates were coated with recombinant human IL-15 (Prospec cat no. CYT230) or Rhesus macaque IL-15 (MyBiosource cat. no. MBS948894) at 100 ng/well in carbonate coating buffer for 2 hours at 37° C. […] The plate was then blocked with 2% normal goat serum for 30 min at 37° C. and washed 6 times with PBS-Tween (0.05% Tween-20 in PBS, v/v). […] The reaction was stopped by the addition of 1M H₂SO₄ and read at 450 nm. […]
assay endpoint: EC50 (nM)
Please respond with the number in nM and leave the unit unwritten.

// recorded EC50 for huB-E29-14 (antibody, human IgG1, kappa, V domains shown, Humanized B-E29 variant; human IgG1 (G1m3) / kappa (Km3), produced in CHO cells; also called huVH12/huVL1) VH: EVRLMASGGGLVQPGGSLRLSCAASEFTFSNYAMSWVRQAPGKGLEWVATISRGGDYTYYPDSVKGRFTISRDNSKNTLYLQMNSLRAEDTAVYYCARRVSMITGGWAFDYWGQGTLVTVSS VL: DVVMTQSPLSLPVTLGQPASISCRSSQSIVDITGNTYLEWYQQRPGQSPRLLIYKVFNRFSGVPDRFSGSGSGTDFTLKISRVEAEDVGVYYCFQDSFVPYTFGQGTKLEIKR : 0.347

// recorded EC50 for huB-E29-7 (antibody, human IgG1, kappa, V domains shown, Humanized B-E29 variant; human IgG1 (G1m3) / kappa (Km3), produced in CHO cells; also called huVH5/huVL1) VH: EVRLMASGGGLVQPGGSLRLSCAASEFTFSNYAMSWVRQAPGKGLEWVATISRGGDYTYYPESVKGRFTISRDNSKNTLYLQMNSLRAEDTAVYYCARRVSFITGGWAMDYWGQGTLVTVSS VL: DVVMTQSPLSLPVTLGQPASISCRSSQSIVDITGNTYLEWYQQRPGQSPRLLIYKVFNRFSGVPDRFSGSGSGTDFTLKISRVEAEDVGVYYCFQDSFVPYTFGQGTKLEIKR : 0.433

// recorded EC50 for 146B7 (comparative antibody 2) (antibody, V domains shown, Fully human antibody of the prior art (WO 03/017935), 'produced in the same expression system'; also called AMG 714; HuMaxIL-15) VH: EVQLVQSGAEVKKPGESLKISCKVSGYFFTTYWIGWVRQMPGKGLEYMGIIYPGDSDTRYSPSFQGQVTISADKSISTAYLQWSSLKASDTAMYYCARGGNWNCFDYWGQGTLVTVSS VL: EIVLTQSPGTLSLSPGERATLSCRASQSVSSSYLAWYQQKPGQAPRLLIYGASRRATGIPDRFSGSGSGTDFTLTISRLEPEDFAVYYCQRYGSSHTFGQGTKLEIS : 0.733

// recorded EC50 for huB-E29-5 (antibody, human IgG1, kappa, V domains shown, Humanized B-E29 variant; human IgG1 (G1m3) / kappa (Km3), produced in CHO cells; also called huVH1/huVL3) VH: EVRLMASGGGLVQPGGSLRLSCAASEFTFSNYAMSWVRQAPGKGLEWVATISRGGDYTYYPDSVKGRFTISRDNSKNTLYLQMNSLRAEDTAVYYCARRVSMITGGWAMDYWGQGTLVTVSS VL: DVVMTQSPLSLPVTLGQPASISCRSSQSIVDITGNTYLEWYQQRPGQSPRRLIYKVFNRFSGVPDRFSGSGSGTDFTLKISRVEAEDVGVYYCFQDSFVPYTFGQGTKLEIKR : 0.453

// recorded EC50 for huB-E29-10 (antibody, human IgG1, kappa, V domains shown, Humanized B-E29 variant; human IgG1 (G1m3) / kappa (Km3), produced in CHO cells; also called huVH8/huVL1) VH: EVRLMASGGGLVQPGGSLRLSCAASEFTFSNYAMSWVRQAPGKGLEWVATISRGGDYTYYPDTVKGRFTISRDNSKNTLYLQMNSLRAEDTAVYYCARRVSMITGGYAMDYWGQGTLVTVSS VL: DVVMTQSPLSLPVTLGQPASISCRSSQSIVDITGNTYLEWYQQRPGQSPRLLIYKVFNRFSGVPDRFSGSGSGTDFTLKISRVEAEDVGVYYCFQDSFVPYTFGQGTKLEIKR : 0.353
